TEST: in vitro
SETTINGS: human, hela cells, % viability

{"MOLECULE": "CC1CCc2sc(C(=O)N3CCC4(CC3)NC(=O)NC4=O)cc2C1 (stereo not drawn) [CBK304992]", "viability at 28.5 h, 10 µM (%)": 89.1}
{"MOLECULE": "COc1ccc(S(=O)(=O)N2CCN(Cc3ccc4c(c3)OCO4)CC2)c2ccccc12 [CBK074521]", "viability at 28.5 h, 10 µM (%)": 96.4}
{"MOLECULE": "CN(CC(=O)N1CCN(Cc2ccc3c(c2)OCO3)CC1)S(=O)(=O)c1ccccc1 [CBK265791]", "viability at 28.5 h, 10 µM (%)": 87}
{"MOLECULE": "CN1CCN(c2cc3c(cc2F)c(=O)c(C(=O)O)cn3-c2ccc(F)cc2)CC1 [CBK287138]", "viability at 28.5 h, 10 µM (%)": 78.4}
{"MOLECULE": "CC(CCN1CCN(C)CC1)c1ccccc1 (stereo not drawn) [CBK261881]", "viability at 28.5 h, 10 µM (%)": 88.5}
{"MOLECULE": "CC1CCCC(C)N1CC(=O)Nc1ccccc1Oc1ccccc1 (stereo not drawn) [CBK015824C]", "viability at 28.5 h, 10 µM (%)": 119}
{"MOLECULE": "Cc1cccn2cc(COC(=O)c3ccc(F)cc3N)nc12 [CBK298310]", "viability at 28.5 h, 10 µM (%)": 54.1}
{"MOLECULE": "Cc1oc(C2CC2)cc1C(=O)N1CCCC1c1nc2ccccc2[nH]1 (stereo not drawn) [CBK283741]", "viability at 28.5 h, 10 µM (%)": 88.1}
{"MOLECULE": "CCN(Cc1ccccc1)C(=O)NCCCN1CCN(C)CC1 [CBK155212]", "viability at 28.5 h, 10 µM (%)": 102}
